method_summary: Selectivity index, ratio of IC50 for human HeLa cells to MIC for metronidazole sensitive Trichomonas vaginalis ATCC 33592
Type: toxicity, cell-based
test_context: read-out: Selectivity Index
value_type: selectivity ratio
Number only, no unit.

molecule: Cc1ncc([N+](=O)[O-])n1CC(O)CSC(=S)N1CCN(c2cccc(Cl)c2)CC1 (racemic)
recorded_number: 62
--
molecule: Cc1nc([N+](=O)[O-])cn1CC(O)CSC(=S)N1CCN(c2cccc(Cl)c2Cl)CC1 (racemic)
recorded_number: 30

Entry under test: Cc1ncc([N+](=O)[O-])n1CC(O)CSC(=S)N1CCN(c2ccccn2)CC1 (racemic) . Its selectivity ratio was 100

Notebook: CCN(CC)C(=S)SCC(O)Cn1c([N+](=O)[O-])cnc1C (racemic) , selectivity ratio read as 65

Sample Cc1ncc([N+](=O)[O-])n1CC(O)Cn1nnc2ccccc21 (racemic) ; selectivity ratio observed: 169
